The following compounds are listed with their measured pIC50 values.
systemUnderTest: UniProt O60674
Sequence (O60674 849-1124): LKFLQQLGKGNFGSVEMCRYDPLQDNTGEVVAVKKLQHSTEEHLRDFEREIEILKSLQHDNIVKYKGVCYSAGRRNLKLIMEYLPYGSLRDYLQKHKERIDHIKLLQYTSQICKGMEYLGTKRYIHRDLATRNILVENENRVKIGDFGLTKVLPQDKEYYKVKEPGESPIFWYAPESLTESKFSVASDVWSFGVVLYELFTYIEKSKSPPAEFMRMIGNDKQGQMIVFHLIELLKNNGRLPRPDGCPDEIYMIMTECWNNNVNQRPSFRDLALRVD
assayText: Purified kinase assay (Z'-LYTE), JAK2
Assay type: biochemical
conditionDetails: Table 1; read-out: JAK2 IC50
pIC50: −log10 of the molar value.

## Task Fill in the blank: the reported pIC50 of CCC(=O)N1CCN(c2ccc(Nc3cc(NCc4cc(F)cc(F)c4)c(C(N)=O)nn3)cc2)CC1 is ____.
## Result 6.00 to 7.00

## Task Query (compound): CCC(=O)N1CCN(c2ccc(Nc3cc(NCc4cccc(F)c4)c(C(N)=O)nn3)cc2)CC1 ; field requested: pIC50
## Result 6.00 to 7.00

## Task Entry CCC(=O)N1CCC(c2ccc(Nc3cc(NCc4cccc(F)c4)c(C(N)=O)nn3)cc2)CC1 : reported pIC50 = ?
## Result < 6.00

## Task // lookup pIC50 for CCC(=O)N1CCC(c2ccc(Nc3cc(NCc4cc(F)cc(F)c4)c(C(N)=O)nn3)cc2)CC1
## Result < 6.00
